Cited source: ChEMBL document CHEMBL4190408

protocol.text: Apparent clearance in Balb/c mouse at 10 mg/kg, po after 1 hr
Format: ADME, organism-based
setup.conditions: in vivo
assay.endpoint: CL/F (mL/min/kg)

[[record]]
cpd_smiles = "COc1ccc(NC(=O)N2CCN(c3nc(N)nc4scnc34)[C@@H](C)C2)cc1"
quantity_unit = "mL/min/kg"
observed_result = 42

[[record]]
cpd_smiles = "COc1ccc(NC(=O)N2CCN(c3nc(N)nc4scnc34)CC2)cc1"
quantity_unit = "mL/min/kg"
observed_result = 80

[[record]]
cpd_smiles = "COc1ccc(NC(=O)N2CCN(c3nc(N)nc4c3cnn4C)[C@@H](C)C2)c(C)c1"
quantity_unit = "mL/min/kg"
observed_result = 5.3

[[record]]
cpd_smiles = "COc1ccc(NC(=O)N2CCN(c3nc(N)nc4c3ncn4C)[C@@H](C)C2)c(C)c1"
quantity_unit = "mL/min/kg"
observed_result = 46


---

protocol.text: Thermodynamic solubility of the compound in pH 7.4 solution after 90 mins by UVLC-MS analysis
Assay type: physicochemical
setup.conditions: pH 7.4 solution, pH 7.4; read-out: Therm_solubility
assay.endpoint: solubility thermodynamic at 1.5 h (µM)

[[record]]
cpd_smiles = "COc1ccc(NC(=O)N2CCN(c3nc(N)nc4scnc34)[C@@H](C)C2)c(C)n1"
observed_result = 362

[[record]]
cpd_smiles = "COc1ccc(NC(=O)N2CCN(c3nc(N)nc4c3ncn4C)[C@@H](C)C2)c(C)c1"
observed_result = 150

[[record]]
cpd_smiles = "COc1ccc(NC(=O)N2CCN(c3nc(N)nc4c3cnn4C)[C@@H](C)C2)c(C)c1"
observed_result = 110

[[record]]
cpd_smiles = "COc1ccc(NC(=O)N2CCN(c3nc(N)nc4sncc34)[C@@H](C)C2)c(C)c1"
observed_result = 52

[[record]]
cpd_smiles = "COc1ccc(NC(=O)N2CCN(c3nc(N)nc4scnc34)[C@@H](C)C2)cc1"
observed_result = 30

[[record]]
cpd_smiles = "COc1ccc(NC(=O)N2CCN(c3nc(N)nc4scnc34)[C@@H](C)C2)c(C)c1"
observed_result = 3


---

system.tested: Voltage-gated inwardly rectifying potassium channel KCNH2 (Homo sapiens, UniProt Q12809)
Sequence (Q12809 whole entry): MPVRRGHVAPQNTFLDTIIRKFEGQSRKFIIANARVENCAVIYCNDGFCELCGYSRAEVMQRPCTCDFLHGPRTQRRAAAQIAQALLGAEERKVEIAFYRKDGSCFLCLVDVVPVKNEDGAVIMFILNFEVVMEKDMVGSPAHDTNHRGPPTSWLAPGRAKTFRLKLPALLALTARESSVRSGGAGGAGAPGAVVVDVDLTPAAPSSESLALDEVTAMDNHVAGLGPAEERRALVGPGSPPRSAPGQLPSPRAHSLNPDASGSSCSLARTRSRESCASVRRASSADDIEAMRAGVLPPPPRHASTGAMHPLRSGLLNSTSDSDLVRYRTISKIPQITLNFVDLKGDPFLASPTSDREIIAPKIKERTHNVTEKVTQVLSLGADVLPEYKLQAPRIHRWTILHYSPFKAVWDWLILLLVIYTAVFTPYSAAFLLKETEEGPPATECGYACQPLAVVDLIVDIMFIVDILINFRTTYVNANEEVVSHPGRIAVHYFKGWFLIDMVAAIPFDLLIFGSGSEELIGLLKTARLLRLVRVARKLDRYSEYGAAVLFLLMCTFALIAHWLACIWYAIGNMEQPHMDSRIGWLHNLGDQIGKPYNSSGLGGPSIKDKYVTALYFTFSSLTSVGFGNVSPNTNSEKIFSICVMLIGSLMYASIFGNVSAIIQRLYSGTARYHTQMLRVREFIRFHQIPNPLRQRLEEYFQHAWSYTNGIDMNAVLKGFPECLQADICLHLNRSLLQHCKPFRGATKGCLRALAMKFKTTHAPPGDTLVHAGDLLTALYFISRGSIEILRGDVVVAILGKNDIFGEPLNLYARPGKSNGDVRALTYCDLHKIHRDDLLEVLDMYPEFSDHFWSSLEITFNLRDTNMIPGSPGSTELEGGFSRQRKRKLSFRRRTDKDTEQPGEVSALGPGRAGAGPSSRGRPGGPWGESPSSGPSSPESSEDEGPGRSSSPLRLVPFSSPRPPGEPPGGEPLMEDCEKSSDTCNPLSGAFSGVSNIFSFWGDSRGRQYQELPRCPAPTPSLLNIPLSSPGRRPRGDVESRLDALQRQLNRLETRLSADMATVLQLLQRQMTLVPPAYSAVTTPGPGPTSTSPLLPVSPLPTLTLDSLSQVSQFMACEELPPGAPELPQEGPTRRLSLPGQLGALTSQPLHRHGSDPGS
assay.endpoint: IC50

[[record]]
compound = "COc1ccc(NC(=O)N2CCN(c3nc(N)nc4scnc34)CC2C)cc1 (stereo not drawn)"
assay_endpoint = "IC50"
observed_result = "Nd(Insoluble)"

[[record]]
compound = "COc1ccc(NC(=O)N2C[C@@H](C)N(c3nc(N)nc4scnc34)[C@@H](C)C2)cc1"
assay_endpoint = "IC50"
observed_result = "Nd(Insoluble)"

[[record]]
compound = "COc1ccc(NC(=O)N2CCN(c3nc(N)nc4scnc34)C(C)C2C)cc1 (stereo not drawn)"
assay_endpoint = "IC50"
observed_result = "Nd(Insoluble)"

[[record]]
compound = "COc1ccc(NC(=O)N2CCN(c3nc(N)nc4scnc34)C(C)C2)cc1 (stereo not drawn)"
assay_endpoint = "IC50"
observed_result = "Nd(Insoluble)"

[[record]]
compound = "COc1ccc(NC(=O)N2CC3CCC(C2)N3c2nc(N)nc3scnc23)cc1"
assay_endpoint = "IC50"
observed_result = "Nd(Insoluble)"

[[record]]
compound = "COc1ccc(NC(=O)N2C3CCC2CN(c2nc(N)nc4scnc24)C3)cc1"
assay_endpoint = "IC50"
observed_result = "Nd(Insoluble)"

[[record]]
compound = "COc1ccc(NC(=O)N2C[C@H](C)N(c3nc(N)nc4scnc34)C[C@H]2C)cc1"
assay_endpoint = "IC50"
observed_result = "Nd(Insoluble)"

[[record]]
compound = "Nc1nc(N2CCN(C(=O)COc3ccc(Cl)cc3)CC2)c2nc(-c3cccnc3)sc2n1"
assay_endpoint = "IC50"
observed_result = "Nd(Insoluble)"


---

Below: a set of entries, each annotated with reported fAUC.
Test system: Mus musculus
protocol.text: Unbound AUC (infinity) in Balb/c mouse at 10 mg/kg, po after 1 hr
Format: ADME, organism-based
setup.conditions: in vivo
assay.endpoint: fAUC

[[record]]
cpd_smiles = "COc1ccc(NC(=O)N2CCN(c3nc(N)nc4c3cnn4C)[C@@H](C)C2)c(C)c1"
assay_endpoint = "fAUC"
observed_result = "6.941 µM·h"

[[record]]
cpd_smiles = "COc1ccc(NC(=O)N2CCN(c3nc(N)nc4scnc34)[C@@H](C)C2)cc1"
assay_endpoint = "fAUC"
observed_result = "0.205 µM·h"

[[record]]
cpd_smiles = "COc1ccc(NC(=O)N2CCN(c3nc(N)nc4c3ncn4C)[C@@H](C)C2)c(C)c1"
assay_endpoint = "fAUC"
observed_result = "1.746 µM·h"

[[record]]
cpd_smiles = "COc1ccc(NC(=O)N2CCN(c3nc(N)nc4scnc34)CC2)cc1"
assay_endpoint = "fAUC"
observed_result = "0.332 to 0.333 µM·h"


---

Tested on: Mus musculus
protocol.text: Unbound AUC in Balb/c mouse at 1 mg/kg, iv
Format: ADME, organism-based
setup.conditions: in vivo
Each item that follows carries a reported fAUC.
assay.endpoint: fAUC (µM·h)

[[record]]
cpd_smiles = "COc1ccc(NC(=O)N2CCN(c3nc(N)nc4scnc34)[C@@H](C)C2)cc1"
system_tested = "Mus musculus"
observed_result = 0.03

[[record]]
cpd_smiles = "COc1ccc(NC(=O)N2CCN(c3nc(N)nc4c3cnn4C)[C@@H](C)C2)c(C)c1"
system_tested = "Mus musculus"
observed_result = 0.684

[[record]]
cpd_smiles = "COc1ccc(NC(=O)N2CCN(c3nc(N)nc4c3ncn4C)[C@@H](C)C2)c(C)c1"
system_tested = "Mus musculus"
observed_result = 0.447


---

protocol.text: Volume of distribution at steady state in Balb/c mouse at 1 mg/kg, iv
Type: ADME, organism-based
setup.conditions: Balb/c, in vivo, read-out: Vdss
assay.endpoint: Vd (L/kg)

[[record]]
cpd_smiles = "COc1ccc(NC(=O)N2CCN(c3nc(N)nc4c3cnn4C)[C@@H](C)C2)c(C)c1"
assay_endpoint = "Vd"
observed_result = 0.6

[[record]]
cpd_smiles = "COc1ccc(NC(=O)N2CCN(c3nc(N)nc4scnc34)[C@@H](C)C2)cc1"
assay_endpoint = "Vd"
observed_result = 1

[[record]]
cpd_smiles = "COc1ccc(NC(=O)N2CCN(c3nc(N)nc4c3ncn4C)[C@@H](C)C2)c(C)c1"
assay_endpoint = "Vd"
observed_result = 0.8


---

Tested on: Mus musculus
protocol.text: Unbound Cmax in Balb/c mouse at 10 mg/kg, po after 1 hr
Assay type: ADME, organism-based
setup.conditions: in vivo
Recorded fCmax, one value per entry.
assay.endpoint: fCmax

[[record]]
cpd_smiles = "COc1ccc(NC(=O)N2CCN(c3nc(N)nc4c3ncn4C)[C@@H](C)C2)c(C)c1"
observed_result = "1087 nM"

[[record]]
cpd_smiles = "COc1ccc(NC(=O)N2CCN(c3nc(N)nc4scnc34)[C@@H](C)C2)cc1"
observed_result = "194 nM"

[[record]]
cpd_smiles = "COc1ccc(NC(=O)N2CCN(c3nc(N)nc4c3cnn4C)[C@@H](C)C2)c(C)c1"
observed_result = "2113 nM"

[[record]]
cpd_smiles = "COc1ccc(NC(=O)N2CCN(c3nc(N)nc4scnc34)CC2)cc1"
observed_result = "154 nM"


---

solubility kinetic at 1.5 h reference
protocol.text: physchem
setup.conditions: pH 7.4 solution
assay.endpoint: solubility kinetic at 1.5 h (µM)

[[record]]
cpd_smiles = "COc1ccc(NC(=O)N2CCN(c3nc(N)nc4c3cnn4C)[C@@H](C)C2)c(C)c1"
operator = ">"
observed_result = 350

[[record]]
cpd_smiles = "Cc1ccc(NC(=O)N2CCN(c3nc(N)nc4sc(-c5cccnc5)nc34)CC2)cc1"
operator = "="
observed_result = 9

[[record]]
cpd_smiles = "COc1ccc(NC(=O)N2CCN(c3nc(N)nc4scnc34)CC2)cc1"
operator = "="
observed_result = 85


---

protocol.text: in vitro
setup.conditions: human, liver microsomes
microsomal CLint at 0.75 h, 3 µM reference
assay.endpoint: microsomal CLint at 0.75 h, 3 µM (µL/min/mg)

[[record]]
cpd_smiles = "COc1ccc(NC(=O)N2CCN(c3nc(N)nc4scnc34)[C@@H](C)C2)cc1"
assay_endpoint = "microsomal CLint at 0.75 h, 3 µM"
observed_result = 14

[[record]]
cpd_smiles = "COc1ccc(NC(=O)N2CCN(c3nc(N)nc4scnc34)CC2)cc1"
assay_endpoint = "microsomal CLint at 0.75 h, 3 µM"
observed_result = 21

[[record]]
cpd_smiles = "COc1ccc(NC(=O)N2CCN(c3nc(N)nc4c3cnn4C)[C@@H](C)C2)c(C)c1"
assay_endpoint = "microsomal CLint at 0.75 h, 3 µM"
observed_result = 4

[[record]]
cpd_smiles = "COc1ccc(NC(=O)N2CCN(c3nc(N)nc4sc(-c5ccccc5)nc34)CC2)cc1"
assay_endpoint = "microsomal CLint at 0.75 h, 3 µM"
observed_result = 13

[[record]]
cpd_smiles = "COc1ccc(NC(=O)N2CCN(c3nc(N)nc4sc(-c5cccnc5)nc34)CC2)cc1"
assay_endpoint = "microsomal CLint at 0.75 h, 3 µM"
observed_result = 35

[[record]]
cpd_smiles = "COc1ccc(NC(=O)N2CCN(c3nc(N)nc4c3ncn4C)[C@@H](C)C2)c(C)c1"
assay_endpoint = "microsomal CLint at 0.75 h, 3 µM"
observed_result = 9

[[record]]
cpd_smiles = "Nc1nc(N2CCN(C(=O)COc3ccc(Cl)cc3)CC2)c2nc(-c3cccnc3)sc2n1"
assay_endpoint = "microsomal CLint at 0.75 h, 3 µM"
observed_result = 34

